- Procedure Summary: Therapeutic index, ratio of HC90 for hemolytic activity in human erythrocytes to MIC against Staphylococcus aureus ATCC 25923
- Assay type: toxicity, cell-based
- Test Context: read-out: TI
Square brackets hold non-standard residues; d marks the D form. Peptide text beside a SMILES is read from it. Orn = NCCC[C@H](N)C(=O)O
Readings of selectivity ratio for the listed compounds
Would you mind answering with just the numeric figure?

CC(C)C[C@@H]1NC(=O)[C@H](CCCN)NC(=O)[C@H](C(C)C)NC(=O)[C@@H]2CCCN2C(=O)[C@@H](Cc2ccccc2)NC(=O)[C@H](CC(C)C)NC(=O)[C@H](CCCN)NC(=O)[C@H](C(C)C)NC(=O)[C@@H]2CCCN2C(=O)[C@@H](Cc2ccccc2)NC1=O (cyclo(L[dF]PV[Orn]L[dF]PV[Orn]))	3

Moving on to another compound below.
Value of selectivity ratio reported for the compound CCCCCCCC[C@H]1CC2C(C1)[C@@H]1SC[C@H]3C(=O)N[C@@H](C(C)C)C(=O)N[C@@H](CCCN)C(=O)N[C@@H](CC(C)C)C(=O)N[C@H](Cc4ccccc4)C(=O)N4CCC[C@H]4C(=O)N[C@@H](C(C)C)C(=O)N[C@H](CCCN)C(=O)N[C@@H](CC(C)C)C(=O)N[C@H]2C(=O)N31 (some centres not stated) is 9.5

---

- Tested on: Escherichia coli
- Procedure Summary: Antibacterial activity against Escherichia coli NBRC 12734 after overnight incubation by microplate dilution method
- Assay type: functional
Square brackets hold non-standard residues; d marks the D form. Peptide text beside a SMILES is read from it. Orn = NCCC[C@H](N)C(=O)O
Value Type: MIC (µg/mL)
Record the value in µg/mL, omitting the unit from your answer.

Consider the reported MIC for these compounds:
CC(C)C[C@@H]1NC(=O)[C@H](CCCN)NC(=O)[C@H](C(C)C)NC(=O)[C@H](CCCCN)NC(=O)[C@@H](Cc2ccccc2)NC(=O)[C@H](CC(C)C)NC(=O)[C@@H](CCCN)NC(=O)[C@H](C(C)C)NC(=O)[C@H](CCCCN)NC(=O)[C@@H](Cc2ccccc2)NC1=O	25
CC(C)C[C@@H]1NC(=O)[C@H](CCCN)NC(=O)[C@H](C(C)C)NC(=O)[C@@H]2CCCN2C(=O)[C@@H](Cc2ccccc2)NC(=O)[C@H](CC(C)C)NC(=O)[C@H](CCCN)NC(=O)[C@H](C(C)C)NC(=O)[C@@H]2CCCN2C(=O)[C@@H](Cc2ccccc2)NC1=O (cyclo(V[Orn]L[dF]PV[Orn]L[dF]P))	25
CC(C)C[C@@H]1NC(=O)[C@H](CCCN)NC(=O)[C@H](C(C)C)NC(=O)[C@@H]2CCCN2C(=O)[C@@H](CCCCN)NC(=O)[C@H](CC(C)C)NC(=O)[C@@H](CCCN)NC(=O)[C@H](C(C)C)NC(=O)[C@@H]2CCCN2C(=O)[C@@H](CCCCN)NC1=O	12.5
CC(C)C[C@@H]1NC(=O)[C@H](CCCN)NC(=O)[C@H](C(C)C)NC(=O)[C@@H]2CCCN2C(=O)[C@@H](Cc2ccccc2)NC(=O)[C@H](CC(C)C)NC(=O)[C@H](CCCN)NC(=O)[C@H](C(C)C)NC(=O)[C@@H]2CCCN2C(=O)NC(=O)[C@H](Cc2ccccc2)NC(=O)[C@H](CCCN)NC1=O	25

Moving on to another compound below.
Value of MIC reported for the compound CC(C)C[C@@H]1NC(=O)[C@H](CCCN)NC(=O)[C@H](C(C)C)NC(=O)[C@@H]2CCCN2C(=O)[C@@H](Cc2ccccc2)NC(=O)[C@H](CC(C)C)NC(=O)[C@H](CCCN)NC(=O)[C@H](C(C)C)NC(=O)[C@@H]2CCCN2C(=O)NC(=O)[C@H](Cc2ccccc2)NC(=O)[C@H](CCCCN)NC1=O is 25

---

Readings of selectivity ratio for the listed molecules
- Procedure Summary: Therapeutic index, ratio of HC90 for hemolytic activity in human erythrocytes to MIC against Enterococcus faecalis ATCC 29212
- Format: toxicity, cell-based
- Test Context: read-out: TI
Square brackets hold non-standard residues; d marks the D form. Peptide text beside a SMILES is read from it. Orn = NCCC[C@H](N)C(=O)O
Would you mind answering with just the numeric figure?

CCCCCCCC[C@H]1CC2C(C1)[C@@H]1SC[C@H]3C(=O)N[C@@H](C(C)C)C(=O)N[C@@H](CCCN)C(=O)N[C@@H](CC(C)C)C(=O)N[C@H](Cc4ccccc4)C(=O)N4CCC[C@H]4C(=O)N[C@@H](C(C)C)C(=O)N[C@H](CCCN)C(=O)N[C@@H](CC(C)C)C(=O)N[C@H]2C(=O)N31 (some centres not stated)	4.75

Value of selectivity ratio reported for the molecule CC(C)C[C@@H]1NC(=O)[C@H](CCCN)NC(=O)[C@H](C(C)C)NC(=O)[C@@H]2CCCN2C(=O)[C@@H](Cc2ccccc2)NC(=O)[C@H](CC(C)C)NC(=O)[C@H](CCCN)NC(=O)[C@H](C(C)C)NC(=O)[C@@H]2CCCN2C(=O)[C@@H](Cc2ccccc2)NC1=O (cyclo(L[dF]PV[Orn]L[dF]PV[Orn])) is 1.5

---

- Procedure Summary: Therapeutic index, ratio of HD100 for hemolytic activity in human erythrocytes to MIC against Escherichia coli
- Type: toxicity, cell-based
- Test Context: read-out: TI
Square brackets hold non-standard residues; d marks the D form. Peptide text beside a SMILES is read from it.
Value Type: selectivity ratio

Value of selectivity ratio reported for the molecule CC(C)C[C@@H]1NC(=O)[C@H](CCCCN)NC(=O)[C@H](C(C)C)NC(=O)[C@@H]2CCCN2C(=O)[C@@H](Cc2ccc(O)cc2)NC(=O)[C@H](CC(C)C)NC(=O)[C@H](CCCCN)NC(=O)[C@H](C(C)C)NC(=O)[C@H](CCCCN)NC(=O)[C@H](CC(C)C)NC(=O)[C@H](CCCCN)NC(=O)[C@@H]2CCCN2C(=O)[C@@H](Cc2ccc(O)cc2)NC(=O)[C@H](CCCCN)NC(=O)[C@H](C(C)C)NC(=O)[C@H](CCCCN)NC1=O (cyclo(VKLKVK[dY]PKLKVKL[dY]P)) is > 50

---

- Procedure Summary: Therapeutic index, ratio of HD100 for hemolytic activity in human RBC to MIC against Candida albicans
- Type: toxicity
- Test Context: human red blood cells, read-out: TI
Square brackets hold non-standard residues; d marks the D form. Peptide text beside a SMILES is read from it. Orn = NCCC[C@H](N)C(=O)O
Value Type: selectivity ratio
Would you mind answering with just the numeric figure?

CC(C)C[C@@H]1NC(=O)[C@H](CCCCN)NC(=O)[C@H](C(C)C)NC(=O)[C@@H]2CCCN2C(=O)[C@@H](Cc2ccc(O)cc2)NC(=O)[C@H](CC(C)C)NC(=O)[C@H](CCCCN)NC(=O)[C@H](C(C)C)NC(=O)[C@H](CCCCN)NC(=O)[C@H](CC(C)C)NC(=O)[C@@H]2CCCN2C(=O)[C@@H](Cc2ccc(O)cc2)NC(=O)[C@H](C(C)C)NC(=O)[C@@H](CCCCN)NC1=O (cyclo(KL[dK]V[dY]PLKVKL[dY]PV))	32

Moving on to another compound below.
Value of selectivity ratio reported for the compound CC(C)C[C@@H]1NC(=O)[C@H](CCCN)NC(=O)[C@H](C(C)C)NC(=O)[C@@H]2CCCN2C(=O)[C@@H](Cc2ccccc2)NC(=O)[C@H](CC(C)C)NC(=O)[C@H](CCCN)NC(=O)[C@H](C(C)C)NC(=O)[C@@H]2CCCN2C(=O)[C@@H](Cc2ccccc2)NC1=O (cyclo(L[dF]PV[Orn]L[dF]PV[Orn])) is 4

---

- Procedure Summary: Haemolytic activity in human erythrocytes incubated for 30 mins
- Format: ADME, cell-based, Erythrocyte
Square brackets hold non-standard residues; d marks the D form. Peptide text beside a SMILES is read from it. Orn = NCCC[C@H](N)C(=O)O
Value Type: HC50 at 0.5 h

CC(C)C[C@@H]1NC(=O)[C@H](CCCN)NC(=O)[C@H](C(C)C)NC(=O)[C@@H]2C[C@@H](N[C@@H](Cc3ccccc3)C(=O)O)CN2C(=O)[C@@H](Cc2ccccc2)NC(=O)[C@H](CC(C)C)NC(=O)[C@H](CCCN)NC(=O)[C@H](C(C)C)NC(=O)[C@@H]2C[C@@H](N[C@@H](Cc3ccccc3)C(=O)O)CN2C(=O)[C@@H](Cc2ccccc2)NC1=O	20 to 50 µg/mL
CC(C)C[C@@H]1NC(=O)[C@H](CCCN)NC(=O)[C@H](C(C)C)NC(=O)[C@@H]2C[C@@H](N[C@@H](CCCCN)C(=O)O)CN2C(=O)[C@@H](Cc2ccccc2)NC(=O)[C@H](CC(C)C)NC(=O)[C@H](CCCN)NC(=O)[C@H](C(C)C)NC(=O)[C@@H]2C[C@@H](N[C@@H](CCCCN)C(=O)O)CN2C(=O)[C@@H](Cc2ccccc2)NC1=O	> 100 µg/mL
CC(C)C[C@@H]1NC(=O)[C@H](CCCN)NC(=O)[C@H](C(C)C)NC(=O)[C@@H]2C[C@@H](N)CN2C(=O)[C@@H](Cc2ccccc2)NC(=O)[C@H](CC(C)C)NC(=O)[C@H](CCCN)NC(=O)[C@H](C(C)C)NC(=O)[C@@H]2C[C@@H](N)CN2C(=O)[C@@H](Cc2ccccc2)NC1=O	50 to 100 µg/mL

Moving on to another molecule below.
Value of HC50 at 0.5 h reported for the molecule CC(C)C[C@@H]1NC(=O)[C@H](CCCN)NC(=O)[C@H](C(C)C)NC(=O)[C@@H]2CCCN2C(=O)[C@@H](Cc2ccccc2)NC(=O)[C@H](CC(C)C)NC(=O)[C@H](CCCN)NC(=O)[C@H](C(C)C)NC(=O)[C@@H]2CCCN2C(=O)[C@@H](Cc2ccccc2)NC1=O (cyclo(L[dF]PV[Orn]L[dF]PV[Orn])) is 5 to 10 µg/mL
